Test system: radish, wild (wild radish, Raphanus raphanistrum)
method_notes: Test D controlled growth environment herbicide test, pre- and postemergence
Format: in vivo
condition_context: Postemergence, 31 g ai/ha; scale 0 to 100 (0 no effect, 100 complete control)
measured_property: Radish, Wild plant response rating
Respond using a number only.

Ask | Identify measured Radish, Wild plant response rating corresponding to `Cc1nn(C)c(=O)c(-c2c(C)sc3c(C)cc(Cl)cc23)c1O`
Reply | 85

Ask | Read the entry `Cc1nn(C)c(=O)c(-c2cccc3ccc(Br)cc23)c1O` and write its reported Radish, Wild plant response rating.
Reply | 40

Ask | Fill in Radish, Wild plant response rating for record `CC(=O)Oc1c(C)nn(C)c(=O)c1-c1c(C)sc2ccc(Cl)cc12`
Reply | 75

Ask | Hello, please tell me recorded Radish, Wild plant response rating for this one: `Cc1ccc2sc(C)c(-c3c(OC(=O)OC(C)C)c(C)nn(C)c3=O)c2c1`
Reply | 5

====

Test system: bluegrass (annual bluegrass, Poa annua)
method_notes: Test D controlled growth environment herbicide test, pre- and postemergence
Assay type: in vivo
condition_context: Postemergence, 125 g ai/ha; visual rating on scale 0 (no effect) to 100 (complete control), 14 to 21 d
measured_property: Plant response rating, Bluegrass
The answer should be a number; do not append a unit.

Ask | For Cc1nn(C)c(=O)c(-c2cccc3ccccc23)c1O [Compound 11] , write its Plant response rating, Bluegrass.
Reply | 5

Ask | Please give the documented Plant response rating, Bluegrass of Cc1nn(C)c(=O)c(-c2cccc3ccc(Br)cc23)c1O [Compound 126]
Reply | 15

Ask | # return recorded Plant response rating, Bluegrass for entry Cn1nc(Br)c(O)c(-c2cccc3ccccc23)c1=O [Compound 20]
Reply | 30

Ask | Name the recorded Plant response rating, Bluegrass of the item Cc1nn(C)c(=O)c(-c2c(C)sc3c(C)cc(Cl)cc23)c1O [Compound 35] in your answer.
Reply | 35

Ask | Read off the recorded Plant response rating, Bluegrass for Cc1nn(C)c(=O)c(-c2ccc(Br)c3ccccc23)c1O [Compound 75]
Reply | 15

Ask | Tell me Plant response rating, Bluegrass reported for Cc1cc2ccccc2c(-c2c(O)c(C)nn(C)c2=O)c1C [Compound 34]
Reply | 15

Ask | Quick one: give measured Plant response rating, Bluegrass for COC(=O)Oc1c(C)nn(C)c(=O)c1-c1c(C)sc2ccc(C)cc12 [Compound 80]
Reply | 35

====

Test system: chickweed (common chickweed, Stellaria media)
method_notes: Test D controlled growth environment herbicide test, pre- and postemergence
Type: in vivo
condition_context: Preemergence, 125 g ai/ha; scale 0 to 100 (0 no effect, 100 complete control)
measured_property: Plant response rating, Chickweed
Note: the reply should be a number with no unit written.

Ask | Give me measured Plant response rating, Chickweed, please, for this molecule: `Cn1nc(Br)c(O)c(-c2cccc3ccccc23)c1=O`
Reply | 95

Ask | Please give the documented Plant response rating, Chickweed of `Cc1nn(C)c(=O)c(-c2ccc(Br)c3ccccc23)c1O`
Reply | 95

Ask | Return reported Plant response rating, Chickweed. Input molecule: `Cc1nn(C)c(=O)c(-c2c(C)sc3c(C)cc(Cl)cc23)c1O`
Reply | 100

Ask | Query Plant response rating, Chickweed for `CCc1sc2ccc(C)cc2c1-c1c(O)c(C)nn(C)c1=O`
Reply | 100
